Target: human NK3 receptor (Homo sapiens (Human))
Sequence (P29371 whole entry): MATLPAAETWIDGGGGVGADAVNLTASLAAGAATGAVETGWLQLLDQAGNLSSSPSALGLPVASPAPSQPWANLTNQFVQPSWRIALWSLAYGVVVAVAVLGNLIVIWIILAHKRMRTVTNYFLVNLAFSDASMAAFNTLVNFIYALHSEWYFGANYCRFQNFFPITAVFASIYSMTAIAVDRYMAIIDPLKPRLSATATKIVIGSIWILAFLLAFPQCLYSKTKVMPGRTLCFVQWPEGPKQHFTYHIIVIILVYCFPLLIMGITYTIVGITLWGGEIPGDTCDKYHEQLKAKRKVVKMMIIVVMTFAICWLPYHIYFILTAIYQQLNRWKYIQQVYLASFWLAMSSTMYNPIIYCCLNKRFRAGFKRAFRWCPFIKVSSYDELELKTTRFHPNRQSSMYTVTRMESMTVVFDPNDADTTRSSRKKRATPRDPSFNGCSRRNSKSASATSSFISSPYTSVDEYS
Assay: Human NK3 receptor binding assay at 1 uM
Settings: 1 μM test compound; [3H]SR142801, CHO cell membranes; read-out: percent inhibition at 1 μM
As shown below, each of these compounds has a reported inhibition at 1 µM value.

CCOc1cc(C2NC(=O)NC(c3ccc(F)cc3)=C2c2ccccc2)cc([N+](=O)[O-])c1O (stereo not shown) : > 50%

Q. # lookup: inhibition at 1 µM of CCOc1cc(C2NC(=O)NC(C3CCCC3)=C2c2ccccc2)cc([N+](=O)[O-])c1O (stereo not shown)
A. > 50%

Q. # lookup: inhibition at 1 µM of CCOc1cc(C2NC(=O)NC(c3ccccc3)=C2c2ccccc2)cc2[nH]c(=O)oc12 (stereo not shown)
A. > 50%

Q. # lookup: inhibition at 1 µM of CCOc1cc(C2NC(=O)NC(c3ccccc3)=C2C2CCCCC2)cc([N+](=O)[O-])c1O (stereo not shown)
A. > 50%

Q. # lookup: inhibition at 1 µM of CCOc1cc(C2NC(=O)NC(c3ccccc3)=C2c2ccccc2Cl)cc([N+](=O)[O-])c1O (stereo not shown)
A. > 50%

Q. # lookup: inhibition at 1 µM of CCOc1cc(C2NC(=O)NC(c3cccc(Cl)c3)=C2c2ccccc2)cc([N+](=O)[O-])c1O (stereo not shown)
A. > 50%

Q. # lookup: inhibition at 1 µM of CCOc1cc(C2NC(=O)NC(c3ccccc3)=C2c2cccc(Cl)c2)cc([N+](=O)[O-])c1O (stereo not shown)
A. > 50%

* * *

Biological target: human NK3 receptor (Homo sapiens (Human))
Test: Human NK3 receptor binding assay at 10 μM
Details: 10 μM test compound; [3H]SR142801, CHO cell membranes; read-out: percent inhibition at 10 μM
As shown below, each of these compounds has a reported inhibition at 10 µM value.

CCOc1cc(C2NC(=O)NC(c3ccccc3)=C2c2ccccc2)cc([N+](=O)[O-])c1O (stereo not drawn) : > 50%
CCOc1cc(C2NC(=O)NC(c3ccccc3)=C2c2cccs2)cc([N+](=O)[O-])c1O (stereo not drawn) : > 50%
CCOc1cc(C2NC(=O)NC(c3cccs3)=C2c2ccccc2)cc([N+](=O)[O-])c1O (stereo not drawn) : > 50%
CCOc1cc(C2NC(=O)NC(c3ccccc3)=C2c2cccc(C#N)c2)cc([N+](=O)[O-])c1O (stereo not drawn) : > 50%
CCOc1cc(C2NC(=O)NC(c3cccnc3)=C2c2ccsc2)cc([N+](=O)[O-])c1O (stereo not drawn) : > 50%

Q. # lookup: inhibition at 10 µM of CCOc1cc(C2NC(=O)NC(c3ccoc3)=C2c2ccccc2)cc([N+](=O)[O-])c1O (stereo not drawn)
A. > 50%

Q. # lookup: inhibition at 10 µM of COCCOc1cc(C2NC(=O)NC(c3ccccc3)=C2c2ccccc2)cc([N+](=O)[O-])c1O (stereo not drawn)
A. > 50%

Q. # lookup: inhibition at 10 µM of COc1cc(C2NC(=O)NC(c3ccccc3)=C2c2ccccc2)cc([N+](=O)[O-])c1O (stereo not drawn)
A. > 50%

Q. # lookup: inhibition at 10 µM of CCOc1cc(C2NC(=O)NC(c3cccc(OC)c3)=C2c2ccccc2)cc([N+](=O)[O-])c1O (stereo not drawn)
A. > 50%

* * *

For reference, pIC50 measured on human NK3 receptor (Homo sapiens (Human)):
Answer as the number alone; pIC50 is minus log10 of concentration in mol/L.

CCOc1cc([C@@H]2NC(=O)NC(c3ccccc3)=C2c2ccccc2)cc([N+](=O)[O-])c1O : 4.72

// below: pIC50 requested for another molecule
Q. Value wanted: pIC50 (human NK3 receptor (Homo sapiens (Human))) of entry CCOc1cc([C@H]2NC(=O)NC(c3ccccc3)=C2c2ccsc2)cc([N+](=O)[O-])c1O
A. 5.85

* * *

As shown below, each of these compounds has a reported inhibition at 10 µM value.
Biological target: human NK3 receptor (Homo sapiens (Human))
Experiment: Human NK3 receptor binding assay at 10 μM
Conditions: read-out: NK3, % inhibition @ 10 μM; 10 μM test compound; [3H]SR142801, CHO cell membranes
The figure you give is taken to be in %; do not add the unit.

CCOc1cc(C2NC(=O)NC(c3cccnc3)=C2c2ccsc2)cc([N+](=O)[O-])c1O (centres unmarked) : 63
CCOc1cc(C2NC(=O)NC(c3ccn(C)n3)=C2c2ccsc2)cc([N+](=O)[O-])c1O (centres unmarked) : 61
CCOc1cc(C2NC(=O)NC(c3ccccc3)=C2c2ccsc2)cc([N+](=O)[O-])c1O (centres unmarked) : 97
CCOc1cc(C2NC(=O)NC(c3ccccc3)=C2c2ccccc2)cc([N+](=O)[O-])c1O (centres unmarked) : 88

Q. # lookup: inhibition at 10 µM of CCOc1cc(C2NC(=O)NC(c3cccnc3)=C2c2ccccc2)cc([N+](=O)[O-])c1O (centres unmarked)
A. 92
